TESTED_ON: Human recombinant MMP-1 (Homo sapiens, UniProt P03956)
Construct: made in house; host or cells: MMP-1-transfected HT-1080 cells (spent media)
Sequence (P03956 100-469): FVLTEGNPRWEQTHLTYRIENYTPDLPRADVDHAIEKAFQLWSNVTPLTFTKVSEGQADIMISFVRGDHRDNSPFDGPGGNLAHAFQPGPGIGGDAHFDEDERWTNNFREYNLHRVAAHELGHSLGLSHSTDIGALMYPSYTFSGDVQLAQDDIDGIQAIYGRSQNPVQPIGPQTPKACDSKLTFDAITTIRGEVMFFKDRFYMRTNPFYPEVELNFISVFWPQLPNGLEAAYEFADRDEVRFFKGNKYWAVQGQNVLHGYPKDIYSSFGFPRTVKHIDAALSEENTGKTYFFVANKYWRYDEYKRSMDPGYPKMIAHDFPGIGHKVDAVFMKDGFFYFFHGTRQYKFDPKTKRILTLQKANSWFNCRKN
TEST_PROTOCOL: In vitro MMP inhibition, IC50 determination (fluorogenic substrate I)
Format: biochemical
TEST_CONTEXT: value outside parentheses
OBSERVED_PROPERTY: IC50

Solved cases (5 shown):
>>> recorded_result("COCCN1CCC(C(=O)NO)(S(=O)(=O)c2ccc(OCCCSc3nc4ccccc4s3)cc2)CC1")
"> 10 µM"
>>> recorded_result("O=C(NO)C1(S(=O)(=O)c2ccc(OCCOCC3CC3)cc2)CCOCC1")
"> 10 µM"
>>> recorded_result("O=C(NO)C1(S(=O)(=O)c2ccc(OCCCSc3nc4ccccc4s3)cc2)CCN(CC2CC2)CC1")
"> 10 µM"
>>> recorded_result("O=C(NO)C1(S(=O)(=O)c2ccc(OCCCc3cccc(-c4ccc(F)cc4F)c3)cc2)CCOCC1")
"> 10 µM"
>>> recorded_result("O=C(NO)C1(S(=O)(=O)c2ccc(OCCCc3cccc(C4CCCCN4)c3)cc2)CCN(C2CC2)CC1 (centres unmarked)")
"> 10 µM"

Next molecule, please.
Which IC50 is reported for this molecule? COC(=O)c1ccc(OCCOc2ccc(S(=O)(=O)C3(C(=O)NO)CCOCC3)cc2)cc1 > 10 µM

Values from patent US20040024024A1
